Target: beta-catenin (human)
Sequence (B6V8E6 146-665 limits assumed): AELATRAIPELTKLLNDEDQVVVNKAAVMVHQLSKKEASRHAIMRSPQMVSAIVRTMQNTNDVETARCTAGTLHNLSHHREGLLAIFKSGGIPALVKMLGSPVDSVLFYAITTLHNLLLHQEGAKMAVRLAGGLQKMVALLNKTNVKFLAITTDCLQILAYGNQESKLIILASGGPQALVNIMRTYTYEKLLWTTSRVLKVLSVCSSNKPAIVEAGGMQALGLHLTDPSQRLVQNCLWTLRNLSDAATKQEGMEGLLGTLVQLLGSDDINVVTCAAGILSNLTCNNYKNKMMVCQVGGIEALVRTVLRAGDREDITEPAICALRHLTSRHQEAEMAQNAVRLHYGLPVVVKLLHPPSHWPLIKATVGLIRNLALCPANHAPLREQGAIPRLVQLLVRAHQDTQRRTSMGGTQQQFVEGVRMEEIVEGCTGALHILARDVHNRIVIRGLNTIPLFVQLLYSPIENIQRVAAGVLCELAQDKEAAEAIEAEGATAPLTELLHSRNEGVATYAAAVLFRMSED
Experiment: cell-based or functional assay
*1 amine or outer side, *2 acyl side, *3 side chain or, on linkers, in order; H or OH if unused. Bridges are numbered along the chain shown (N, C = ends). Primed or numbered codes have the meaning given here. [ ]: non-standard residue; d: D form. PyrS2(6) = (S)-3-amino-1-((pent-4-en-1-yloxy)carbonyl)pyrrolidine-3-carboxylic acid, stapled with another olefin-containing amino acid residue through the olefin group, O=C(OCCCC=[*:3])N1CC[C@@](N[*:1])(C(=O)[*:2])C1; B5(4) = 2-amino-2-(pent-4-en-1-yl)hept-6-enoic acid, stapled through each of its two olefin groups with other olefin-containing amino acid residues, O=C(C(CCCC=[*:3])(CCCC=[*:4])N[*:1])[*:2]; Phe(3-COOH) = N[C@@H](Cc1cccc(C(=O)O)c1)C(=O)O; Bta = N[C@@H](Cc1csc2ccccc12)C(=O)O; αAllylPro = C=CC[C@@]1(C(=O)O)CCCN1; tBuAla = CC(C)(C)C[C@H](N)C(=O)O; 3Thi = N[C@@H](Cc1ccsc1)C(=O)O; GlnR = not defined here
observable: NanoBRET Abs IC50 (bin >3.0 uM)

INSERT INTO assay_data (binder, observable, result) VALUES
  ('Ac-[αAllylPro]D[tBuAla][B5(4)]D[Phe(3-COOH)]AAF[GlnR][PyrS2(6)][3Thi][Bta]K-NH2 (bridge 10-14; not fully specified (bridges); printed as Ac-PL3-Asp-Npg-B5-Asp-3COOHF-Ala-Ala-Phe-GlnR*3-PyrS2-3Thi-BztA-Lys*3-NH2; reading uncertain) [I-33]', 'NanoBRET Abs IC50 (bin >3.0 uM)', '< 10 µM');
